molecular target: human 5-HT4(b) receptor (Homo sapiens, UniProt Q13639); experiment: Radioligand binding assay with [3H]GR113808
Sequence (Q13639 whole entry): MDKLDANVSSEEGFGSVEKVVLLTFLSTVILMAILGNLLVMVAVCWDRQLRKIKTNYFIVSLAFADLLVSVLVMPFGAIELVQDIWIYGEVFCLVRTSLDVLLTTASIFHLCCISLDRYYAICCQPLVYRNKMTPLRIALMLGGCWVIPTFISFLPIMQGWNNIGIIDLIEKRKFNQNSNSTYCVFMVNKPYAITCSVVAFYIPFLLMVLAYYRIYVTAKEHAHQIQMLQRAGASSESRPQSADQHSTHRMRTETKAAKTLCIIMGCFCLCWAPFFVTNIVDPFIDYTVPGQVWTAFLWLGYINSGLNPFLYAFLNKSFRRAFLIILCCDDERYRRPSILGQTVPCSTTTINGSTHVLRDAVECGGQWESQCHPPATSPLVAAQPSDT
recorded-metric: pKd
A value of pKd is the negative decimal logarithm of a concentration given in moles per litre.

Query: Need pKd of O=C(OCC1CCN(C2CCCC(C(=O)O)C2)CC1)c1c2n(c3ccccc13)CCCO2 (stereo not drawn) , thanks.
Reply: 8.92

Query: So what's the measured pKd for this one? O=C(OCC1CCN(C2CCC(C(=O)O)C2)CC1)c1c2n(c3ccccc13)CCCO2 (stereo not drawn)
Reply: 8.94

Query: pKd for `CC(C)(C(=O)O)c1ccc(CN2CCC(COC(=O)c3c4n(c5ccccc35)CCCO4)CC2)cc1` ?
Reply: 9.45

Query: GET /values?readout=pKd&item= O=C(OCC1CCN(C2C3CC4C(C3C(=O)O)C42)CC1)c1c2n(c3ccccc13)CCCO2 (stereo not drawn)
Reply: 8.82

Query: Record request: pKd value, item CC(C(=O)O)c1ccc(CN2CCC(COC(=O)c3c4n(c5ccccc35)CCCO4)CC2)cc1 (stereo not drawn)
Reply: 9.29

Query: Look up pKd: `COC(=O)c1ccccc1-c1ccc(CN2CCC(COC(=O)c3c4n(c5ccccc35)CCCO4)CC2)cc1`
Reply: 11.60
